Tested on: U937 cells
Assay: U937 cell growth inhibition (direct antitumor action, CellTiterGlo)
Format: cell-based
Conditions: U937 cell growth inhibition, 4 days culture
Procedure: The direct antitumor action of bisphosphonic acid POM ester and bisphosphonic acid was studied by comparison using U937. The direct antitumor action of various bisphosphonic acid POM esters was studied by comparison using U937 and EJ-1. The measurement was performed according to Experimental Example 2 and Experimental Example 4.
pIC50: −log10 of the molar value.
READOUT: pIC50

{"STRUCTURE STRING": "Cc1cnc(NCC(P(=O)(OCOC(=O)C(C)(C)C)OCOC(=O)C(C)(C)C)P(=O)(OCOC(=O)C(C)(C)C)OCOC(=O)C(C)(C)C)s1", "TARGET SYSTEM": "U937 cells", "OBSERVED": 5.60}
{"STRUCTURE STRING": "CCCCCCCCc1ccc(NCC(P(=O)(OCOC(=O)C(C)(C)C)OCOC(=O)C(C)(C)C)P(=O)(OCOC(=O)C(C)(C)C)OCOC(=O)C(C)(C)C)nc1", "TARGET SYSTEM": "U937 cells", "OBSERVED": 5.47}
{"STRUCTURE STRING": "COc1ccc(-c2cccnc2NCC(P(=O)(OCOC(=O)C(C)(C)C)OCOC(=O)C(C)(C)C)P(=O)(OCOC(=O)C(C)(C)C)OCOC(=O)C(C)(C)C)cc1", "TARGET SYSTEM": "U937 cells", "OBSERVED": 5.21}
{"STRUCTURE STRING": "CC(C)(C)C(=O)OCOP(=O)(OCOC(=O)C(C)(C)C)C(CNc1ccon1)P(=O)(OCOC(=O)C(C)(C)C)OCOC(=O)C(C)(C)C", "TARGET SYSTEM": "U937 cells", "OBSERVED": 5.10}
{"STRUCTURE STRING": "CC(C)(C)C(=O)OCOP(=O)(OCOC(=O)C(C)(C)C)C(CNc1ccncn1)P(=O)(OCOC(=O)C(C)(C)C)OCOC(=O)C(C)(C)C", "TARGET SYSTEM": "U937 cells", "OBSERVED": 6.19}
{"STRUCTURE STRING": "CC(C)(C)C(=O)OCOP(=O)(OCOC(=O)C(C)(C)C)C(CNc1ccc(F)cn1)P(=O)(OCOC(=O)C(C)(C)C)OCOC(=O)C(C)(C)C", "TARGET SYSTEM": "U937 cells", "OBSERVED": 5.28}

Taken from patent US10532065B2.
